Where these numbers come from: ChEMBL document CHEMBL4330114

procedureSummary: Selectivity index, ratio of CC50 for mock-infected human MT4 cells to EC50 for HIV1 RES056 RES056 containing reverse transcriptase K103N + Y181C mutant infected in human MT4 cells
Assay type: toxicity, cell-based
conditionParameters: read-out: Selectivity Index
Listed molecules paired with reported selectivity ratio

Below, each entry is followed by its recorded selectivity ratio result.
molecule | selectivity ratio
Nc1ccn([C@@H]2CS[C@H](CO)O2)c(=O)n1 [LAMIVUDINE] | > 11
N#Cc1cc(Cl)cc(Oc2c(C(F)(F)F)ccn(CC(=O)Nc3ccc(Br)cc3)c2=O)c1 | < 1

Please find the next molecule below.
## Input For the molecule N#Cc1cc(Cl)cc(Oc2c(C(F)(F)F)ccn(CC(=O)Nc3ccncc3)c2=O)c1 , give its reported selectivity ratio.
## Output < 1
